- test_system: PfPKG full regulatory domain (1–542) Wild type (Plasmodium falciparum, UniProt Q8I719)
- Construct: PfPKG full regulatory domain (1–542); His-tag (pQTEV, TEV site) (N, cleaved yes)
- Sequence (Q8I719 1-542): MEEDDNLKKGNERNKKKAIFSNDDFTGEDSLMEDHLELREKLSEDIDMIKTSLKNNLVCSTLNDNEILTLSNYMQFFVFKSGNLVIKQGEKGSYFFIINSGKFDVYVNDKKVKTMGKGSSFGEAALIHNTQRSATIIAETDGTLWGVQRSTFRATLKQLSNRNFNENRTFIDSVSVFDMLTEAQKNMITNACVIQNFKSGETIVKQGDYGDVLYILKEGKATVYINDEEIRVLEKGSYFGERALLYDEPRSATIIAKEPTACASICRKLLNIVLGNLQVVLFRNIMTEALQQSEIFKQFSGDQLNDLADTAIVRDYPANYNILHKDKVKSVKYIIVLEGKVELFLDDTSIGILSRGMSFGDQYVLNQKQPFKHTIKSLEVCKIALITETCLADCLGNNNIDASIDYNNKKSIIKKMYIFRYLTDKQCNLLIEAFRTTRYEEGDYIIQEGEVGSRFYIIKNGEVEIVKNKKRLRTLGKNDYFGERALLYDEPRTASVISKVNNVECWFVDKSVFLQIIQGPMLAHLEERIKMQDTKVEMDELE
- condition_context: read-out: EC50 ± SEM (n) competition experiments
property_name: EC50 (nM)
Please reply with the bare figure in nM and do not write the unit itself.

Endpoint output: EC50 of `Nc1nc2c(ncn2[C@@H]2O[C@@H]3COP(=O)(O)O[C@H]3[C@H]2O)c(=O)[nH]1` . Value?
79

====

- test_system: PfPKG full regulatory domain (1–542) D533A (Plasmodium falciparum, UniProt Q8I719, D533A)
- Construct: PfPKG full regulatory domain (1–542); His-tag (pQTEV, TEV site) (N, cleaved yes)
- condition_context: read-out: EC50 ± SEM (n) competition experiments
- Procedure: Measurements were performed in 150 mM NaCl, 20 mM MOPS plus 0.005% (w/v) CHAPS pH 7.0 using the Fusion a-FP microtiter plate reader at room temperature in a 384 well microtiterplate (Perkin Elmer, Optiplate, black). […] The KD values were calculated from sigmoidal dose-response curves. For competition FP experiments, the protein concentration and the concentration of 8-Fluo-cGMP were fixed to give a polarization signal that was 50% of the maximum value obtained from direct FP measurements. […]
property_name: pEC50
Notebook: values listed as pEC50 are -log10 of the concentration (mol/L).

What value of measured pEC50 is listed for `Nc1nc2c(ncn2[C@@H]2O[C@@H]3COP(=O)(O)O[C@H]3[C@H]2O)c(=O)[nH]1` ?
6.21

====

- test_system: PfPKG CNB-D (401–542) R484A (Plasmodium falciparum, UniProt Q8I719, R484A)
- Construct: 401–542 for CNB-D; His-tag (pQTEV, TEV site) (N, cleaved yes)
- condition_context: PfCNB-D R484A; read-out: EC50 ± SEM (n) competition experiments
property_name: EC50 (µM)
Answer format: numeric, µM implied, no suffix.

Give PfPKG CNB-D (401–542) R484A (Plasmodium falciparum, UniProt Q8I719, R484A) EC50 for `Nc1nc2c(ncn2[C@@H]2O[C@@H]3COP(=O)(O)O[C@H]3[C@H]2O)c(=O)[nH]1`
3.2

====

- test_system: PfPKG CNB-D (401–542) D533A (Plasmodium falciparum, UniProt Q8I719, D533A)
- Construct: 401–542 for CNB-D; His-tag (pQTEV, TEV site) (N, cleaved yes)
- Sequence (Q8I719 401-542 D533A): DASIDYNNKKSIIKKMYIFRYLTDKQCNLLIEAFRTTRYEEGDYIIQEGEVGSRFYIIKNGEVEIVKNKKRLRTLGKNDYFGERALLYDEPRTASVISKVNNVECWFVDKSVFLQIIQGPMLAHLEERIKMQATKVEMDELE
- condition_context: PfCNB-D D533A; read-out: EC50 ± SEM (n) competition experiments
property_name: pEC50
Value format note: pEC50 is -log10 of concentration (mol/L); just state the number.

For PfPKG CNB-D (401–542) D533A (Plasmodium falciparum, UniProt Q8I719, D533A), provide pEC50 of `Nc1nc2c(ncn2[C@@H]2O[C@@H]3COP(=O)(O)O[C@H]3[C@H]2O)c(=O)[nH]1` please.
6.12

====

- test_system: PfPKG full regulatory domain (1–542) R484A (Plasmodium falciparum, UniProt Q8I719, R484A)
- Construct: PfPKG full regulatory domain (1–542); His-tag (pQTEV, TEV site) (N, cleaved yes)
- Sequence (Q8I719 1-542 R484A): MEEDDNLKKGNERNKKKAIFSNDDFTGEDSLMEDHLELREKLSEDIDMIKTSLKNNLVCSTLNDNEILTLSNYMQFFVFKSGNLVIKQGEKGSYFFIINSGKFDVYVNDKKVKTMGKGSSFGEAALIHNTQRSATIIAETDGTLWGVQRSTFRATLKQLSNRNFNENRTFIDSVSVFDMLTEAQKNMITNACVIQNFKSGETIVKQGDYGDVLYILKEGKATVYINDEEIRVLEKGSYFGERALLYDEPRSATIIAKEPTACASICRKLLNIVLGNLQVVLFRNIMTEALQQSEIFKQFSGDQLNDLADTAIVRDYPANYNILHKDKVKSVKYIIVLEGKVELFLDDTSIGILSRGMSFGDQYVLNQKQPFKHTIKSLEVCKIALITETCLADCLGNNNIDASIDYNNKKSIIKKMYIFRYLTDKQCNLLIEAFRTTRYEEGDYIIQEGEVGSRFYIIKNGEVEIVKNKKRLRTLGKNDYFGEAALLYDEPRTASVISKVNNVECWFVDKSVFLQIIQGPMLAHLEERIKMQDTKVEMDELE
- condition_context: read-out: EC50 ± SEM (n) competition experiments
property_name: pEC50
Conceptually, pEC50 converts a concentration in mol/L into minus its log10.

Reported pEC50 for PfPKG full regulatory domain (1–542) R484A (Plasmodium falciparum, UniProt Q8I719, R484A), given Nc1nc2c(ncn2[C@@H]2O[C@@H]3COP(=O)(O)O[C@H]3[C@H]2O)c(=O)[nH]1 [cGMP, Cyclic GMP] ?
6.02

====

- test_system: PfPKG CNB-D (401–542) Q532A (Plasmodium falciparum, UniProt Q8I719, Q532A)
- Construct: 401–542 for CNB-D; His-tag (pQTEV, TEV site) (N, cleaved yes)
- condition_context: PfCNB-D Q532A; read-out: EC50 ± SEM (n) competition experiments
property_name: EC50 (nM)
I only need the number, in nM, no unit after it.

Look up EC50: `Nc1nc2c(ncn2[C@@H]2O[C@@H]3COP(=O)(O)O[C@H]3[C@H]2O)c(=O)[nH]1`
2400

====

- test_system: PfPKG full regulatory domain (1–542) R484A/Q532A/D533A (Plasmodium falciparum, UniProt Q8I719, D533A/Q532A/R484A)
- Construct: PfPKG full regulatory domain (1–542); His-tag (pQTEV, TEV site) (N, cleaved yes)
- Sequence (Q8I719 1-542 R484A/Q532A/D533A): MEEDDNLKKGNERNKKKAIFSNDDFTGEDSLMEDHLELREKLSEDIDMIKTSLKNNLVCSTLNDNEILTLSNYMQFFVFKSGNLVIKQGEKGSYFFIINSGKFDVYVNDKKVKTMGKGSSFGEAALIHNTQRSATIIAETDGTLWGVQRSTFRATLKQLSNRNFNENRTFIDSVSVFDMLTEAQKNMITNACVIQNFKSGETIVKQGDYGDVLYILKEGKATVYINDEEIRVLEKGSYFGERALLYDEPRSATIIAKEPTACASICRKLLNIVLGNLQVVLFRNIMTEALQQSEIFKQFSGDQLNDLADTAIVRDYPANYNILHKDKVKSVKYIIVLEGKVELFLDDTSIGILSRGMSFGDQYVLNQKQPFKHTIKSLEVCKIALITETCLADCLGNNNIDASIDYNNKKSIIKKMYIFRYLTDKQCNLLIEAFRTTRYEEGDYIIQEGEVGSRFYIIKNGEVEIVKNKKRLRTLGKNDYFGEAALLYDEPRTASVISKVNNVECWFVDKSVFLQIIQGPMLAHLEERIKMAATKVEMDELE
- condition_context: read-out: EC50 ± SEM (n) competition experiments
property_name: EC50 (nM)
Just the number in nM, nothing appended.

Tell me the measured EC50 of `Nc1nc2c(ncn2[C@@H]2O[C@@H]3COP(=O)(O)O[C@H]3[C@H]2O)c(=O)[nH]1` , please.
1400

====

- test_system: PfPKG PfCNB-A (residues 1–173) (Plasmodium falciparum, UniProt Q8I719)
- Construct: residues 1–173 for CNB-A; His-tag (pQTEV, TEV site) (N, cleaved yes)
- condition_context: competition with 8-Fluo-cGMP, read-out: EC50 ± SEM (n) competition measurements
property_name: EC50

Fill in the blank: the reported EC50 of `Nc1nc2c(ncn2[C@@H]2O[C@@H]3COP(=O)(O)O[C@H]3[C@H]2O)c(=O)[nH]1` is ____.
1000 nM

====

- test_system: PfPKG full regulatory domain (1–542) Q532A (Plasmodium falciparum, UniProt Q8I719, Q532A)
- Construct: PfPKG full regulatory domain (1–542); His-tag (pQTEV, TEV site) (N, cleaved yes)
- Sequence (Q8I719 1-542 Q532A): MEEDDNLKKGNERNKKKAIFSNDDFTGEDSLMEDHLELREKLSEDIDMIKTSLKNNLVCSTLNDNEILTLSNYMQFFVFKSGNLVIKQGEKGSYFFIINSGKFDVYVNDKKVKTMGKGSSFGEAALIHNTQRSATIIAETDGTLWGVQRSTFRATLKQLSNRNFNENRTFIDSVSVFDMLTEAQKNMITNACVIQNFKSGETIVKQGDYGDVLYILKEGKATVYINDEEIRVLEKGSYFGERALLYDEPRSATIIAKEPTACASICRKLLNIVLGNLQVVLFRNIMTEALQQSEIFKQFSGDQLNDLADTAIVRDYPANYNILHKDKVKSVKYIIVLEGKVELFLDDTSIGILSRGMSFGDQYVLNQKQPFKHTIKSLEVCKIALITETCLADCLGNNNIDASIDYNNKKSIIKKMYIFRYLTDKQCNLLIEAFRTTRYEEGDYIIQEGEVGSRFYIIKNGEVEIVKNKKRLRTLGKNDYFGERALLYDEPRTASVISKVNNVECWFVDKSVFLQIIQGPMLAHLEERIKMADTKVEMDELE
- condition_context: read-out: EC50 ± SEM (n) competition experiments
property_name: pEC50
Friendly reminder that pEC50 comes from taking -log10 of the concentration in mol/L.

Requested field: pEC50. Item: `Nc1nc2c(ncn2[C@@H]2O[C@@H]3COP(=O)(O)O[C@H]3[C@H]2O)c(=O)[nH]1`
5.66
